Substrate: CC(=O)Oc1cccc2ccccc12
assay-procedure: spectrophotometric esterase assay
Assay type: biochemical, Oleispira antarctica
experimental-setup: 0.4 M NaCl, 50 mM potassium Hepes pH 8.0, 20°C

protein	Km [µM]
OLEI01171 (Oleispira antarctica; S173A) (protein) MSIENLSSNKSFGGWHKQYSHVSNTLNCAMRFAIYLPPQASTGAKVPVLYWLSGLTCSDENFMQKAGAQRLAAELGIAIVAPDTSPRGEGVADDEGYDLGQGAGFYVNATQAPWNRHYQMYDYVVNELPELIESMFPVSDKRAIAGHSMGGHGALTIALRNPERYQSVSAFAPINNPVNCPWGQKAFTAYLGKDTDTWREYDASLLMRAAKQYVPALVDQGEADNFLAEQLKPEVLEAAASSNNYPLELRSHEGYDHSYYFIASFIEDHLRFHSNYLNA	600
